Attribution: ChEMBL document CHEMBL4673245

# SYSTEM NAME: Estrogen receptor (Homo sapiens, UniProt P03372)
# Sequence (P03372 whole entry): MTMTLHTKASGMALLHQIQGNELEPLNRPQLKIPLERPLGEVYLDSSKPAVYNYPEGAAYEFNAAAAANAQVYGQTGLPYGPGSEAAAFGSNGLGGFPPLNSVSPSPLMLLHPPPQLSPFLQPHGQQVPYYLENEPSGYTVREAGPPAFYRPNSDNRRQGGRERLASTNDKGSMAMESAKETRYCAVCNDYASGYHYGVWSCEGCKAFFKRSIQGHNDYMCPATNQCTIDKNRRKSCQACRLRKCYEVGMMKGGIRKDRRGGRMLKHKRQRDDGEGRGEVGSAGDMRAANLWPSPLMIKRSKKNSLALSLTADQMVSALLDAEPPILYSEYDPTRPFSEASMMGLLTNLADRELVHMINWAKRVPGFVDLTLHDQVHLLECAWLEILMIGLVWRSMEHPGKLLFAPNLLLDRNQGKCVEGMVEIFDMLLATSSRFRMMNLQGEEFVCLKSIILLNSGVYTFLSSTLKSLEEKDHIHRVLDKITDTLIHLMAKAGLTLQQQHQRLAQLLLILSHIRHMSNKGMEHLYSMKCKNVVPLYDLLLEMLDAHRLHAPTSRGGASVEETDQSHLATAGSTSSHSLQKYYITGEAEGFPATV
# METHOD DESCRIPTION: Displacement of fluormone ES2 green reagent from human GST-tagged ERalpha LBD (282 to 595 residues) expressed in baculovirus infected insect cells incubated for 1 hrs by TR-FRET Lanthascreen assay
Rule: measured IC50 below 4 nM gets 1; anything equal to or greater than 4 nM gets -1.

{"SMILES STRING": "COc1cc(NC2CN(CCCF)C2)ccc1[C@@H]1c2ccc3[nH]ncc3c2C[C@@H](C)N1CC(C)(F)F", "CAT": 1}
{"SMILES STRING": "C[C@@H]1Cc2c(ccc3[nH]ncc23)[C@@H](c2ccc(NCCNCCCF)cn2)N1CC(F)(F)F", "CAT": -1}
{"SMILES STRING": "COc1cc(NC2CN(CCCF)C2)ccc1[C@@H]1c2ccc3[nH]ncc3c2C[C@@H](C)N1CC(F)(F)F", "CAT": -1}
{"SMILES STRING": "COc1cc(NC2CN(CCCF)C2)ccc1[C@@H]1c2ccc3[nH]ncc3c2C[C@@H](C)N1CC1(F)CC1", "CAT": -1}
{"SMILES STRING": "C[C@@H]1Cc2c(ccc3[nH]ncc23)[C@@H](c2ccc(N[C@H]3CCN(CCCF)C3)cn2)N1CC(F)(F)F", "CAT": 1}
{"SMILES STRING": "CC(C)CN1[C@H](c2c(F)cc(OCCN3CC(CF)C3)cc2F)c2ccc3[nH]ncc3c2C[C@H]1C", "CAT": 1}
{"SMILES STRING": "C[C@@H]1Cc2c(ccc3[nH]ncc23)[C@@H](c2ccc(NC3CN(CCCF)C3)cn2)N1CC(F)(F)CO", "CAT": -1}

###

# SYSTEM NAME: Estrogen receptor (Homo sapiens)
# METHOD DESCRIPTION: Displacement of fluormone ES2 green reagent from human GST-tagged ERalpha LBD (282 to 595 residues) expressed in baculovirus infected insect cells incubated for 1 hrs by TR-FRET Lanthascreen assay
Reported IC50 by item:

{"SMILES STRING": "C[C@@H]1Cc2c(ccc3[nH]ncc23)[C@@H](c2ccc(N(C)[C@H]3CCN(CCCF)C3)cn2)N1CC(F)(F)F", "UNIT SYMBOL": "nM", "IC50": 39.8}
{"SMILES STRING": "C[C@@H]1Cc2c(ccc3[nH]ncc23)[C@@](C)(c2ccc(NC3CN(CCCF)C3)cn2)N1CC(F)F", "UNIT SYMBOL": "nM", "IC50": 10}
{"SMILES STRING": "COc1cc(OCCN2CC(CF)C2)ccc1[C@@H]1c2ccc3[nH]ncc3c2C[C@@H](C)N1CC(C)(C)F", "UNIT SYMBOL": "nM", "IC50": 3.16}
{"SMILES STRING": "COc1cc(NC2CN(CCCF)C2)ccc1[C@@H]1c2ccc3[nH]ncc3c2C[C@@H](C)N1CC(C)(C)F", "UNIT SYMBOL": "nM", "IC50": 6.31}
{"SMILES STRING": "C[C@@H]1Cc2c(ccc3[nH]ncc23)[C@@H](c2ccc(OCCN3CC(CF)C3)cn2)N1CC1(F)CC1", "UNIT SYMBOL": "nM", "IC50": 1.26}
{"SMILES STRING": "C[C@@H]1Cc2c(ccc3[nH]ncc23)[C@@H](c2c(F)cc(OCCN3CC(CF)C3)cc2F)N1CC(C)(C)F", "UNIT SYMBOL": "nM", "IC50": 1}

###

Reported half-life by item:
# METHOD DESCRIPTION: Half-life in rat at 0.5 mg/kg, iv or 1 mg/kg, po
# Assay type: ADME, organism-based
# EXPERIMENTAL PARAMETERS: in vivo
MEASURE NAME: half-life

{"COMPOUND": "COc1cc(NC2CN(CCCF)C2)ccc1[C@@H]1c2ccc3[nH]ncc3c2C[C@@H](C)N1CC1(F)CC1", "MEASURE NAME": "half-life", "MEAS VALUE": "11 h"}
{"COMPOUND": "C[C@@H]1Cc2c(ccc3[nH]ncc23)[C@@H](c2ccc(NC3CN(CCCF)C3)cn2)N1CC(F)(F)F [CAMIZESTRANT]", "MEASURE NAME": "half-life", "MEAS VALUE": "3 h"}

###

# SYSTEM NAME: UniProt Q9Y5N1
# Sequence (Q9Y5N1 whole entry): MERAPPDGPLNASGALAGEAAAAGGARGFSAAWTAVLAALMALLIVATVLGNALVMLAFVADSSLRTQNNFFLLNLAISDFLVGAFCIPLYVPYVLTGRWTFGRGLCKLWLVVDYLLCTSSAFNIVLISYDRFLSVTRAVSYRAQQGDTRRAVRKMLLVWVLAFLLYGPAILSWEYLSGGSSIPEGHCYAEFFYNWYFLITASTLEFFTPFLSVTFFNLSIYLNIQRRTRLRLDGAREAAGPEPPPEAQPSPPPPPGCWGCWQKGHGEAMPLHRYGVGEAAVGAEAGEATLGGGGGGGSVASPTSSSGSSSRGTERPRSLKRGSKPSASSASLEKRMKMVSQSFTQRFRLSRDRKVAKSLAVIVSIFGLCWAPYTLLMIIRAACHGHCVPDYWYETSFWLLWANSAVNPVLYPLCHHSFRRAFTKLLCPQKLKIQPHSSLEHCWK
# METHOD DESCRIPTION: Antagonist activity at human histamine H3 receptor expressed in CHO-K1 cells after 10 mins by HTRF assay
pIC50: −log10 of the molar value.

{"SMILES STRING": "C[C@@H]1Cc2c(ccc3[nH]ncc23)[C@@H](c2ccc(NC3CN(CCCF)C3)cn2)N1CC(F)(F)F", "pIC50": 6.48}

###

# METHOD DESCRIPTION: Volume of distribution at steady state in rat at 0.5 mg/kg, iv or 1 mg/kg, po
# Assay type: ADME, organism-based
# EXPERIMENTAL PARAMETERS: in vivo, read-out: Vdss

{"SMILES STRING": "COc1cc(NC2CN(CCCF)C2)ccc1[C@@H]1c2ccc3[nH]ncc3c2C[C@@H](C)N1CC1(F)CC1", "UNIT SYMBOL": "L/kg", "Vd": 71}
{"SMILES STRING": "C[C@@H]1Cc2c(ccc3[nH]ncc23)[C@@H](c2ccc(NC3CN(CCCF)C3)cn2)N1CC(F)(F)F", "UNIT SYMBOL": "L/kg", "Vd": 13}

###

# METHOD DESCRIPTION: Intrinsic clearance in rat hepatocytes assessed per million cells
# Type: ADME, cell-based, Hepatocyte
# EXPERIMENTAL PARAMETERS: read-out: CLH
I would appreciate it if you labelled entries satisfied when hepatocyte CLint is 40 µL/min/1e6 cells or higher, otherwise not satisfied.

{"SMILES STRING": "COc1cc(NC2CN(CCCF)C2)ccc1[C@@H]1c2ccc3[nH]ncc3c2C[C@@H](C)N1CC(C)(F)F", "CAT": "not satisfied"}
{"SMILES STRING": "CC(C)CN1[C@H](c2c(F)cc(OCCN3CC(CF)C3)cc2F)c2ccc3[nH]ncc3c2C[C@H]1C", "CAT": "satisfied"}
{"SMILES STRING": "C[C@@H]1Cc2c(ccc3[nH]ncc23)[C@@H](c2ccc(N[C@H]3CCN(CCCF)C3)cn2)N1CC(F)(F)F", "CAT": "not satisfied"}
{"SMILES STRING": "C[C@@H]1Cc2c(ccc3[nH]ncc23)[C@@H](c2ccc(OCCN3CC(CF)C3)cn2)N1CC(F)F", "CAT": "not satisfied"}
{"SMILES STRING": "C[C@@H]1Cc2c(ccc3[nH]ncc23)[C@@H](c2ccc(NC3CN(CCCF)C3)cn2)N1CC(C)(F)F", "CAT": "satisfied"}
{"SMILES STRING": "C[C@@H]1Cc2c(ccc3[nH]ncc23)[C@@H](c2ccc(OCCN3CC(CF)C3)cn2)N1CC1(F)CC1", "CAT": "not satisfied"}
{"SMILES STRING": "COc1cc(OC2CN(CCCF)C2)ccc1[C@@H]1c2ccc3[nH]ncc3c2C[C@@H](C)N1CC1(F)CC1", "CAT": "not satisfied"}
{"SMILES STRING": "COc1cc(NC2CN(CCCF)C2)ccc1[C@@H]1c2ccc3[nH]ncc3c2C[C@@H](C)N1CC(F)F", "CAT": "not satisfied"}
{"SMILES STRING": "COc1cc(OCCN2CC(CF)C2)ccc1[C@@H]1c2ccc3[nH]ncc3c2C[C@@H](C)N1CC1(F)COC1", "CAT": "satisfied"}
{"SMILES STRING": "C[C@@H]1Cc2c(ccc3[nH]ncc23)[C@@H](c2ccc(N(C)[C@H]3CCN(CCCF)C3)cn2)N1CC(F)(F)F", "CAT": "not satisfied"}
{"SMILES STRING": "C[C@@H]1Cc2c(ccc3[nH]ncc23)[C@@H](c2c(F)cc(OCCN3CC(CF)C3)cc2F)N1CC(C)(C)F", "CAT": "satisfied"}
{"SMILES STRING": "C[C@@H]1Cc2c(ccc3[nH]ncc23)[C@@H](c2ccc(NCCNCCCF)cn2)N1CC1(F)CC1", "CAT": "not satisfied"}
{"SMILES STRING": "C[C@@H]1Cc2c(ccc3[nH]ncc23)[C@@H](c2ccc(OCCN3CC(CF)C3)cn2)N1CC(F)(F)F", "CAT": "satisfied"}
{"SMILES STRING": "COc1cc(NC2CN(CCCF)C2)ccc1[C@@H]1c2ccc3[nH]ncc3c2C[C@@H](C)N1CC(F)(F)CO", "CAT": "not satisfied"}
{"SMILES STRING": "C[C@@H]1Cc2c(ccc3[nH]ncc23)[C@@H](c2ccc(NC3CN(CCCF)C3)cn2)N1CC(F)(F)CO", "CAT": "not satisfied"}
